The following compounds are listed with their measured IC50 values.
- SYSTEM: ROR gamma ligand-binding domain (hRORg) (Homo sapiens (Human))
- Sequence (P51449 269-508): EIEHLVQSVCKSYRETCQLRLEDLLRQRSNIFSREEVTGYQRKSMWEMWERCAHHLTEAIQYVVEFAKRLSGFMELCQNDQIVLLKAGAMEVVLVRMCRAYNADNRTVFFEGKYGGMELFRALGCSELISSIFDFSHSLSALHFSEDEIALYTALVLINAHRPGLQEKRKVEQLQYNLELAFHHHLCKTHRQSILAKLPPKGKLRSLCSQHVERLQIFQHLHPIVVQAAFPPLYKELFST
- EXPERIMENT: GAL4-RORγ transactivation (luciferase reporter, HG5LN HeLa line)
- ASSAY_CONDITIONS: 18 hours incubation
- Text: GAL4-RORγ Transactivation The RORγ transactivation model was developed from the line HG5LN, which is a HeLa line that stably expresses a luciferase reporter gene controlled by a pentamer of the GAL4 recognition domain of yeast and of a β-globin promoter. […] Molecules that inhibit the ROR gamma constitutive activity reduce the luciferase expression, thus leading to a reduction in the emitted luminescence. […]

Here's what some known entries look like.
- CCc1ccc(N(CC(C)C)S(=O)(=O)c2ccc(OCC3CCN(S(C)(=O)=O)CC3)c(S(C)(=N)=O)c2)cc1 (stereo not shown) [compound 51]: > 1000 nM
- CCc1ccc(N(CC(C)C)S(=O)(=O)c2ccc(OCc3ccncc3)c(S(C)(=N)=O)c2)cc1 (stereo not shown) [compound 39]: > 1000 nM
- CCc1ccc(N(CC(C)C)S(=O)(=O)c2ccc(NCC3CC(O)C3)c(S(C)(=N)=O)c2)cc1 (stereo not shown) [compound 61]: < 100 nM

## Task So what does the record say about IC50 for CCc1ccc(N(CC(C)C)S(=O)(=O)c2ccc(N3CC4(COC4)C3)c(S(C)(=N)=O)c2)cc1 (stereo not shown) [compound 111] ?
## Result < 100 nM
